Catalogue of molecules with associated MIC
- Tested on: Acinetobacter baumannii
- Procedure summary: Antibacterial activity against Carbapenem-resistant Acinetobacter baumannii clinical isolate incubated for 16 to 24 hrs by CLSI based broth microdilution method
- Format: functional
- Study conditions: time 16-24 hrs
Readout kind: MIC (µg/mL)

{"columns": ["Record smiles", "Readout kind", "Value unit", "Value prefix", "Value reported"],
 "data": [
  ["CN[C@H](CC(C)C)C(=O)N[C@H]1C(=O)N[C@@H](CC(N)=O)C(=O)N[C@H]2C(=O)N[C@H]3C(=O)N[C@H](C(=O)N[C@H](C(=O)NCc4ccc(-c5ccc(CCNC(=N)N)cc5)cc4)c4cc(O)cc(O)c4-c4cc3ccc4O)[C@H](O)c3ccc(c(Cl)c3)Oc3cc2cc(c3O[C@@H]2O[C@H](CO)[C@@H](O)[C@H](O)[C@H]2O[C@H]2C[C@](C)(N)[C@H](O)[C@H](C)O2)Oc2ccc(cc2Cl)[C@H]1O", "MIC", "µg/mL", "=", 16],
  ["CN[C@H](CC(C)C)C(=O)N[C@H]1C(=O)N[C@@H](CC(N)=O)C(=O)N[C@H]2C(=O)N[C@H]3C(=O)N[C@H](C(=O)N[C@H](C(=O)NCCCCCCCCN)c4cc(O)cc(O)c4-c4cc3ccc4O)[C@H](O)c3ccc(c(Cl)c3)Oc3cc2cc(c3O[C@@H]2O[C@H](CO)[C@@H](O)[C@H](O)[C@H]2O[C@H]2C[C@](C)(N)[C@H](O)[C@H](C)O2)Oc2ccc(cc2Cl)[C@H]1O", "MIC", "µg/mL", "=", 128],
  ["CC(C)C[C@@H](N)C(=O)N[C@H]1C(=O)N[C@@H](CC(N)=O)C(=O)N[C@H]2C(=O)N[C@H]3C(=O)N[C@H](C(=O)N[C@H](C(=O)NCCOCCOCCN)c4cc(O)cc(O)c4-c4cc3ccc4O)[C@H](O)c3ccc(c(Cl)c3)Oc3cc2cc(c3O[C@@H]2O[C@H](CO)[C@@H](O)[C@H](O)[C@H]2O[C@H]2C[C@](C)(N)[C@H](O)[C@H](C)O2)Oc2ccc(cc2Cl)[C@H]1O", "MIC", "µg/mL", ">", 128]
]}

###

- Tested on: Acinetobacter baumannii
- Procedure summary: Antibacterial activity against Carbapenem-resistant Acinetobacter baumannii clinical isolate incubated for 16 to 24 hrs by CLSI based broth microdilution method
- Assay type: functional
- Study conditions: time 16-24 hrs

{"columns": ["Record smiles", "Tested on", "MIC"],
 "data": [
  ["CC(C)C[C@H](C(=O)N[C@H]1C(=O)N[C@@H](CC(N)=O)C(=O)N[C@H]2C(=O)N[C@H]3C(=O)N[C@H](C(=O)N[C@H](C(=O)O)c4cc(O)cc(O)c4-c4cc3ccc4O)[C@H](O)c3ccc(c(Cl)c3)Oc3cc2cc(c3O[C@@H]2O[C@H](CO)[C@@H](O)[C@H](O)[C@H]2O[C@H]2C[C@](C)(N)[C@H](O)[C@H](C)O2)Oc2ccc(cc2Cl)[C@H]1O)N(C)Cc1ccc(-c2ccc(CNC(=N)N)cc2)cc1", "Acinetobacter baumannii", "> 128 µg/mL"],
  ["CC(C)C[C@@H](N)C(=O)N[C@H]1C(=O)N[C@@H](CC(N)=O)C(=O)N[C@H]2C(=O)N[C@H]3C(=O)N[C@H](C(=O)N[C@H](C(=O)NCCNC(=N)N)c4cc(O)cc(O)c4-c4cc3ccc4O)[C@H](O)c3ccc(c(Cl)c3)Oc3cc2cc(c3O[C@@H]2O[C@H](CO)[C@@H](O)[C@H](O)[C@H]2O[C@H]2C[C@](C)(N)[C@H](O)[C@H](C)O2)Oc2ccc(cc2Cl)[C@H]1O", "Acinetobacter baumannii", "128 µg/mL"]
]}
